System: MYO3A
COND: concentration: 1 μM, replicates: in singlicate; n = 1;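 further: KINOMEscan kinase panel screen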
Please go through the items and note down their %Inh.
Lab note: write values as number then unit, every time.

# ITEM SMILES, %Inh
data = [
    ("CN(c1ccc(NC(=O)Nc2cccc(Cl)c2)cc1)c1ccnc(N)n1.Cl", "3%"),
    ("CN1CCN(Cc2ccc(NC(=O)Nc3ccc(N(C)c4ccnc(Nc5ccc(CS(C)(=O)=O)cc5)n4)cc3)cc2)CC1.Cl", "99.1%"),
    ("Fc1cc(Cl)ccc1Nc1ccnc2cc(-c3ccc(CN4CCOCC4)o3)ccc12", "0%"),
]

Quick batch: %Inh for everything below.
1. O=C(Nc1n[nH]c2cc(-c3cccs3)ccc12)C1CC1
2. CCn1c(-c2nonc2N)nc2c(-c3ccccc3)ncc(OCCCN)c21.O=C(O)C(F)(F)F.O=C(O)C(F)(F)F
3. CC(C)c1nc(-c2ccc(F)c(NS(=O)(=O)c3c(F)cccc3F)c2)c(-c2ccnc(Nc3ccc(N4CCOCC4)nc3)n2)s1
4. COc1cccc2c(-c3ccncc3)c(-c3ccc(F)cc3)nn12
5. N#Cc1cnc2cc(-c3cnc(CNCCN4CCOCC4)s3)ccc2c1Nc1ccc(Oc2ccccc2)cc1

1: 0%; 2: 27%; 3: 51%; 4: 4%; 5: 55%

* * *

System: TEC
COND: concentration: 1 μM, replicates: in singlicate; n = 1
// returns Criterion not met unless %Inh is strictly below 10%, in which case Criterion met

# COMPOUND, LABEL
rows = [
    ("CCNc1nccc(-c2c(-c3ccc(F)cc3)ncn2C2CCN(C)CC2)n1", "Criterion not met"),
    ("COc1cccc(C2=C(Nc3cccc(O)c3)C(=O)NC2=O)c1", "Criterion met"),
    ("CN1CCN(Cc2ccc(NC(=O)Nc3ccc(N(C)c4ccnc(Nc5ccc(CS(C)(=O)=O)cc5)n4)cc3)cc2)CC1.Cl", "Criterion met"),
    ("O=C(Nc1n[nH]c2nc(-c3ccccc3O)ccc12)C1CC1", "Criterion not met"),
    ("Cl.O=C(Nc1ccc(Oc2ccc3[nH]c(NC(=O)c4ccco4)nc3c2)cc1)Nc1cc(C(F)(F)F)ccc1F", "Criterion not met"),
    ("CC(C)NCC(Cc1ccccc1)NC(=O)c1cc(Br)c(-c2ccnc3[nH]ccc23)s1.Cl.Cl (stereo not drawn)", "Criterion met"),
    ("O=C(Nc1n[nH]c2cc(-c3cccs3)ccc12)C1CC1", "Criterion met"),
    ("CN(c1ccc(NC(=O)Nc2cccc(Cl)c2)cc1)c1ccnc(N)n1.Cl", "Criterion met"),
]

Here is the next item to consider.
Bench note: check whether `Cc1ccc(O)cc1Nc1ccnc2ccc(C(C)(C)C)cc12` shows %Inh below 10%
Criterion not met

* * *

Test system: EPHB3
COND: concentration: 1 μM, replicates: in singlicate; n = 1
READOUT NAME: %Inh (%)
Give bare numbers, in %.

# ITEM SMILES, %Inh (%)
data = [
    ("Nc1cccc(-c2ccc3c(N)n[nH]c3c2)c1", 13),
    ("Cl.N#CCc1ccc(Nc2nccc(Nc3ccc(Oc4ccccc4)cc3)n2)cc1", 0),
    ("CCNC(=O)/C=C/c1n[nH]c2cc(Sc3ccccc3C(=O)NC)ccc12", 10),
]

Quick batch: %Inh for everything below.
1. CCn1c(-c2nonc2N)nc2c(-c3ccccc3)ncc(OCCCN)c21.O=C(O)C(F)(F)F.O=C(O)C(F)(F)F
2. COc1ccc(NC(=O)c2ccoc2)cc1-c1ccc(C(=O)NCC2CC2)cc1

1: 0; 2: 0

* * *

Tested on: PAK3
COND: concentration: 1 μM, replicates: in singlicate; n = 1
// returns 0.0 unless %Inh is strictly below 30%, in which case 1.0

Bench note: check whether CC(C)NCC(Cc1ccccc1)NC(=O)c1cc(Br)c(-c2ccnc3[nH]ccc23)s1.Cl.Cl (centres unmarked) [GSK1383281] shows %Inh below 30%
0.0

Bench note: check whether `CCNC(=O)/C=C/c1n[nH]c2cc(Sc3ccccc3C(=O)NC)ccc12` shows %Inh below 30%
1.0

Bench note: check whether Cc1ccc(O)cc1Nc1ccnc2cc(-c3ccc(CN4CCCCC4)o3)ccc12 [GW557777] shows %Inh below 30%
1.0

Bench note: check whether Cl.N#CCc1ccc(Nc2nccc(Nc3ccc(Oc4ccccc4)cc3)n2)cc1 [GW639905] shows %Inh below 30%
0.0

Bench note: check whether `CC(C)(C)c1ccc(C(=O)Nc2cn3cc(-n4ccnc4)ccc3n2)cc1` shows %Inh below 30%
1.0

* * *

Please go through the items and note down their %Inh.
Tested on: MAK
COND: concentration: 1 μM, replicates: in singlicate; n = 1
Lab note: write values as number then unit, every time.

Below: 4 compounds and their reported %Inh.
# ITEM SMILES, MEASURED VALUE
data = [
    ("Cc1ccc(NC(=O)c2ccnc(N3CCCCC3)c2)cc1-c1ccc(C(=O)NCC2CC2)cc1", "13%"),
    ("Cc1ccc(O)cc1Nc1ccnc2cc(-c3ccc(CN4CCCCC4)o3)ccc12", "0%"),
    ("CN(C)CCNS(=O)(=O)c1ccc(-c2ccnc3[nH]ccc23)cc1", "84%"),
    ("COc1ccc(NC(=O)c2ccoc2)cc1-c1ccc(C(=O)NCC2CC2)cc1", "13%"),
]

Pending compound:
// fetch MAK %Inh for `COc1cc(Nc2nccc(N3CCC(NS(=O)(=O)c4ccc(NC(C)=O)cc4)CC3)n2)cc(OC)c1OC`
61%

* * *

System: HIPK3
COND: concentration: 1 μM, replicates: in singlicate; n = 1
Label rule, in plain words: %Inh of 10% and up is Yes, under 10% is No.

# ITEM SMILES, LABEL
data = [
    ("COc1ccc(C)c(Nc2ccnc(Nc3ccc(-c4cnc[nH]4)cc3)n2)c1.Cl", "No"),
    ("Cc1ccc(C)c(NC(=O)Nc2ccc(C)c(-c3ccc(C(=O)Nc4ccncc4)cc3)c2)c1", "Yes"),
    ("Cc1ccc(Nc2ccnc(Nc3ccc(C)c(F)c3)n2)cc1O.Cl", "No"),
    ("CC(C)(C)c1ccc(C(=O)Nc2cn3cc(-n4ccnc4)ccc3n2)cc1", "Yes"),
]

Decide: %Inh of `Cc1nn2c(=O)cc(N3CCO[C@H](C)C3)nc2n1Cc1cccc(Cl)c1Cl` >= 10%?
Yes

Decide: %Inh of `CC(=O)Nc1cn2nc(Oc3cccc(NC(=O)c4cccc(C(F)(F)F)c4)c3)ccc2n1` >= 10%?
No

Decide: %Inh of `O=C(O)C(F)(F)F.O=c1[nH]ccc2nc(N[C@@H]3CCNC3)nc(Nc3cc(Cl)cc(Cl)c3)c12` >= 10%?
Yes

Decide: %Inh of `CNc1nccc(-c2ccc3c(N)n[nH]c3c2)n1` >= 10%?
Yes

* * *

Please go through the items and note down their %Inh.
Tested on: ULK3
COND: concentration: 1 μM, replicates: in singlicate; n = 1
Numbers only, in %.

Below: 6 compounds and their reported %Inh.
# COMPOUND, MEASURED VALUE
rows = [
    ("CCn1c(-c2nonc2N)nc2c(-c3ccccc3)ncc(OCCCN)c21.O=C(O)C(F)(F)F.O=C(O)C(F)(F)F", 4),
    ("Nc1ncnc2scc(-c3ccc(NC(=O)Cc4cc(F)ccc4F)cc3)c12.O=C(O)C(F)(F)F", 34),
    ("CN(c1ccc(NC(=O)Nc2cccc(Cl)c2)cc1)c1ccnc(N)n1.Cl", 0),
    ("Cc1cc(-c2ccnc(Nc3cccc(C#N)c3)n2)cc(C)c1O", 54),
    ("CN(c1ccc(NC(=O)N2CCN(CCCN3CCOCC3)CC2)cc1)c1ccnc(Nc2ccc(CS(C)(=O)=O)cc2)n1.Cl", 0),
    ("CCn1cnc2c(NCc3ccccc3)ncnc21", 0),
]

Quick batch: %Inh for everything below.
1. CN(C)c1ncnc2nc[nH]c12
2. O=C(Nc1n[nH]c2cc(-c3cccs3)ccc12)C1CC1
3. CCOc1nccc(-c2c(-c3ccc(F)cc3)ncn2C2CCNCC2)n1
4. COc1ccc(C2=C(Nc3cccc(O)c3)C(=O)NC2=O)cc1
5. COC(=O)Nc1nc2ccc(Oc3ccc(CC(=O)Nc4cc(C(F)(F)F)ccc4F)cc3)cc2[nH]1
6. CSc1ccc(NC2=C(c3ccc(Cl)cc3)C(=O)NC2=O)cc1
7. COc1cccc2c(-c3ccncc3)c(-c3ccc(F)cc3)nn12
8. Cc1nn2c(=O)cc(N3CCO[C@H](C)C3)nc2n1Cc1cccc(Cl)c1Cl

1. 21
2. 7
3. 26
4. 25
5. 0
6. 12
7. 0
8. 14

Quick batch: %Inh for everything below.
1. Cc1ccc(-c2ccc3occ(-c4ccc(S(C)=O)cc4)c3c2)nn1 (stereo not shown)
2. CS(=O)(=O)c1cccc(CNc2nc(Nc3ccc4c(c3)CCC(=O)N4)ncc2C(F)(F)F)c1
3. Cl.Cl.NCC(NC(=O)c1cc(-c2cccnc2)c(-c2ccnc3[nH]ccc23)s1)c1ccccc1 (stereo not shown)
4. Cc1cccc(Nc2nc(NCCN)ncc2C(N)=O)c1
5. CC(C)(C)c1ccc(C(=O)Nc2cn3cc(-n4ccnc4)ccc3n2)cc1

1. 0
2. 66
3. 0
4. 41
5. 10
